These data points were gathered from paper PMC1904291.

Target Or System: T1, I-CreI (UniProt P05725 1-163)
T1 sequence: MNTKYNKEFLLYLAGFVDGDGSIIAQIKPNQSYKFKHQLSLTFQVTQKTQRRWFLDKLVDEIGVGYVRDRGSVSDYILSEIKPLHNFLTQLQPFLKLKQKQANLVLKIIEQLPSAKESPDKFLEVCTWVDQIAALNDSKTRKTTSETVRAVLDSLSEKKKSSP
Experiment Notes: EMSA
Experimental Readout: Kd (nM)
// units = nM; emit number, no label

# query: Kd of entry 6-FAM I-CreI target duplex (dsDNA) DNA 1: GCAAAACGTCGTGAGACAGTTTGC DNA 2: GCAAACTGTCTCACGACGTTTTGC
0.2
